# Test system: nerves of the lips
# testDescription: Topical application of ester ointment or cream on the lips of human subjects: sensual, sensational, plumping or numbing feelings
# Format: in vivo
# conditionNotes: 10% in water-non-washable ointment, topically applied on lips, human
Counter-ions that a name gives are not always drawn.
recordedEndpoint: time after application until the lips experienced the feelings

compound	val
CCCOC(=O)CC(O)(CC(=O)OCCC)C(=O)OCCC [tripropyl citrate, Tripropyl citrate]	a few
CCOC(=O)CC(O)(CC(=O)OCC)C(=O)OCC [triethyl citrate, Triethyl citrate]	one to two
CCOC(=O)[C@@H](O)[C@H](O)C(=O)OCC [D-diethyl tartarate, D-Diethyl tartarate]	one to two
CC(C)OC(=O)CC(O)(CC(=O)OC(C)C)C(=O)OC(C)C [tri-isopropyl citrate, Tri-isopropyl citrate]	a few
O=C(CC(O)(CC(=O)OCc1ccccc1)C(=O)OCc1ccccc1)OCc1ccccc1 [tribenzyl citrate, Tribenzyl citrate]	a few
COC(=O)CC(O)(CC(=O)OC)C(=O)OC [trimethyl citrate, Trimethyl citrate]	one to two
CCOC(=O)[C@H](O)[C@@H](O)C(=O)OCC [L-diethyl tartarate, L-Diethyl tartarate]	one to two
CCOC(=O)CC(O)C(=O)OCC (racemic) [DL-diethyl malate, DL-Diethyl malate]	one to two
